Tested on: CP256
measurement_notes: qHTS profiling for inhibitors of Plasmodium falciparum proliferation (AID 504749); also: nearly all actives have a fitted effect of over 60% in size
condition_description: P. falciparum in erythrocytes, SYBR Green DNA, 72 h; series mostly up to 28.7 µM
Records with an inconclusive call do not appear. Activity calls are given as the source filed them. Calls follow the shape of the dose curve; as a rule, active = well fitted inhibition curve with a large enough effect; inconclusive = small, poorly fitted or top-dose-only effect; inactive = flat fitted curve, though single readings scatter.
Respond only with the outcome that fits, drawn from label 1 = active, label 0 = inactive

The examples below pair each entry with its known result.
CN1CCCN(C(c2ccccc2)c2ccc(Cl)cc2)CC1 (configuration not stated) :: label 1
Nc1c2ccccc2nc2ccccc12 :: label 1
O=C(Nc1ccc(Cl)cc1)Nc1ccc(Cl)c(Cl)c1 :: label 1

Request: What was the test verdict on Nc1ncnc2nc[nH]c12 ?
Result: label 0

Request: Status in this test for CC(NCCC(c1ccccc1)c1ccccc1)c1ccccc1 (configuration not stated) ?
Result: label 1

Request: Fill in: this test's call for O=S(=O)(O)c1ccc2nc(-c3ccccc3)[nH]c2c1 is ___
Result: label 0

Request: Outcome? CCCCCCCCCCCCCCCC[n+]1ccccc1
Result: label 1

Numbers sourced from PubChem BioAssay (NCATS).
